- Species on record: Homo sapiens
- assayNotes: Selectivity ratio Ki for human CB2 receptor to Ki for human CB1 receptor
reportedMetric: Ratio IC50
Numbers only.

As a guide, the following entries are already answered.
| compound | Ratio IC50 |
| --- | --- |
| O=C(NN1CCCCC1)c1nc(-c2ccc(Cl)cc2Cl)n(-c2ccc(Cl)cc2)c1CO | 221 |
| O=C(NN1CCCCC1)c1nc(-c2ccc(Cl)cc2Cl)n(-c2ccc(Cl)cc2)c1I | 181 |

State the recorded Ratio IC50 for every item in the following list.
1. C[S+]([O-])c1c(C(=O)NN2CCCCC2)nn(-c2ccc(Cl)cc2Cl)c1-c1ccc(Cl)cc1 (configuration not stated)
2. Cc1c(C(=O)NN2CCCCC2)nc(-c2ccc(Cl)cc2Cl)n1-c1ccc(Cl)cc1

20
20

Entry CSc1c(C(=O)NN2CCCCCC2)nn(-c2ccc(Cl)cc2Cl)c1-c1ccc(Cl)cc1 ; Ratio IC50 = 14

----------
- Tested on: LLC-PK1
- assayNotes: Efflux ratio of permeability in pig LLC-PK1 cells expressing human MDR1 assessed as ratio of bottom to top transport over top to bottom transport
- Format: ADME, cell-based, Sus scrofa
reportedMetric: Ratio
Give bare numbers.

| compound | systemName | reportedMetric | measuredValue |
| --- | --- | --- | --- |
| C[S+]([O-])c1c(C(=O)NN2CCCCC2)nn(-c2ccc(Cl)cc2Cl)c1-c1ccc(Cl)cc1 (centres undefined) | LLC-PK1 | Ratio | 8 |
| C[S+]([O-])c1c(C(=O)NN2CCCCC2)nc(-c2ccc(Cl)cc2Cl)n1-c1ccc(Cl)cc1 (stereo in doubt; 12) | LLC-PK1 | Ratio | 7.7 |
| CS(=O)(=O)c1c(C(=O)NN2CCCCC2)nc(-c2ccc(Cl)cc2Cl)n1-c1ccc(Cl)cc1 | LLC-PK1 | Ratio | 6 |

Alright, here's another compound for you.
Entry CSc1c(C(=O)NN2CCCCC2)nc(-c2ccc(Cl)cc2Cl)n1-c1ccc(Cl)cc1 ; Ratio = 1.4

----------
- Organism: Homo sapiens
- assayNotes: Selectivity ratio Ki for human CB2 receptor to Ki for human CB1 receptor
Exercise: for every item that follows, state its recorded Ratio IC50.
Answers are plain numbers.

| structure | Ratio IC50 |
| --- | --- |
| CCc1c(C(=O)NN2CCCCC2)nc(-c2ccc(Cl)cc2Cl)n1-c1ccc(Cl)cc1 | 31 |
| N#Cc1c(C(=O)NN2CCCCC2)nc(-c2ccc(Cl)cc2Cl)n1-c1ccc(Cl)cc1 | 53 |
| CSc1c(C(=O)NN2CCCC2)nn(-c2ccc(Cl)cc2Cl)c1-c1ccc(Cl)cc1 | 211 |

State the recorded Ratio IC50 for every item in the following list.
1. CSc1c(C(=O)NN2CCCCC2)nc(-c2ccc(Cl)cc2Cl)n1-c1ccc(Cl)cc1
2. CSc1c(C(=O)NN2CCCCCC2)nc(-c2ccc(Cl)cc2Cl)n1-c1ccc(Cl)cc1

[88, 27]

----------
- assayNotes: Terminal half life in non obese human
- Type: ADME, organism-based
- runConditions: in vivo, read-out: beta t1/2 (converted)
reportedMetric: half-life (h)
Answers are plain numbers, in h.

Entry Cc1c(C(=O)NN2CCCCC2)nn(-c2ccc(Cl)cc2Cl)c1-c1ccc(Cl)cc1 ; half-life = 144

----------
Exercise: for every item that follows, state its recorded ED50.
- Tested on: Rattus norvegicus
- assayNotes: Inhibition of CP-55940-induced hypotension in po dosed anaesthetized rat
- Format: functional
- runConditions: read-out: ID50 (the source's name)
Answers are plain numbers, in mg/kg.

As a guide, the following entries are already answered.
| structure | systemName | ED50 (mg/kg) |
| --- | --- | --- |
| CSc1c(C(=O)NN2CCCC2)nn(-c2ccc(Cl)cc2Cl)c1-c1ccc(Cl)cc1 | Rattus norvegicus | 1.9 |
| CSc1c(C(=O)NN2CCCCC2)nn(-c2ccc(Cl)cc2Cl)c1-c1ccc(Cl)cc1 | Rattus norvegicus | 1.5 |
| CS(=O)(=O)c1c(C(=O)NN2CCCCC2)nc(-c2ccc(Cl)cc2Cl)n1-c1ccc(Cl)cc1 | Rattus norvegicus | 29 |

Alright, here's another compound for you.
Record for CSc1c(C(=O)NN2CCCCC2)nc(-c2ccc(Cl)cc2Cl)n1-c1ccc(Cl)cc1 under target or system Rattus norvegicus: ED50 reported as 1.9
